Kindly supply the reported MIC values for the records listed here.
# System: Acinetobacter baumannii
# assay details: Antibacterial activity against Acinetobacter baumannii BAA 747 assessed as growth inhibition after 24 hr by two-fold serial dilution method
# Assay type: functional
# condition: BAA 747, 24 h

Task: For Acinetobacter baumannii, provide MIC of O=C(O)c1cn(C2CC2)c2cc(-n3cc(CN4CCCCC4)nn3)c(F)cc2c1=O please.
Output: 8 µg/mL

Task: Record: O=C(O)c1cn(C2CC2)c2cc(-n3cc(CNc4ccc(Cl)cc4)nn3)c(F)cc2c1=O
Output: 0.5 µg/mL

Task: Record: O=C(O)c1cn(C2CC2)c2cc(-n3cc(CN4CCOCC4)nn3)c(F)cc2c1=O
Output: 16 µg/mL

Task: Record: CCCN(CCC)Cc1cn(-c2cc3c(cc2F)c(=O)c(C(=O)O)cn3C2CC2)nn1
Output: 16 µg/mL

Task: Record: O=C(O)c1cn(C2CC2)c2cc(-n3cc(CNc4ccccc4)nn3)c(F)cc2c1=O
Output: 1 µg/mL

Task: Record: CCN(CC)Cc1cn(-c2cc3c(cc2F)c(=O)c(C(=O)O)cn3C2CC2)nn1
Output: 16 µg/mL

Task: Record: O=C(O)c1cn(C2CC2)c2cc(-n3cc(CNc4ccc(F)cc4)nn3)c(F)cc2c1=O
Output: 2 µg/mL

Task: Record: CC(=O)NC[C@H]1CN(c2ccc(N3CCOCC3)c(F)c2)C(=O)O1
Output: > 32 µg/mL

Task: Record: O=C(O)c1cn(C2CC2)c2cc(-n3cc(CN4CCNCC4)nn3)c(F)cc2c1=O
Output: 32 µg/mL

Task: Record: O=C(O)c1cn(C2CC2)c2cc(-n3cc(CN4CCCC4)nn3)c(F)cc2c1=O
Output: 8 µg/mL

Task: Record: COc1ccc(NCc2cn(-c3cc4c(cc3F)c(=O)c(C(=O)O)cn4C3CC3)nn2)cc1
Output: 8 µg/mL

Task: Record: O=C(O)c1cn(C2CC2)c2cc(-n3cc(CNC4CCCCC4)nn3)c(F)cc2c1=O
Output: 8 µg/mL

Task: Record: O=C(O)c1cn(C2CC2)c2cc(-n3cc(CNCc4ccccc4)nn3)c(F)cc2c1=O
Output: 8 µg/mL

Task: Record: O=C(O)c1cn(C2CC2)c2cc(-n3cc(Cn4ccnc4)nn3)c(F)cc2c1=O
Output: 32 µg/mL

Task: Record: O=C(O)c1cn(C2CC2)c2cc(-n3cc(CNC4CC4)nn3)c(F)cc2c1=O
Output: 32 µg/mL

Task: Record: O=C(O)c1cn(C2CC2)c2cc(-n3cc(CNC4CCCCCC4)nn3)c(F)cc2c1=O
Output: 16 µg/mL

Task: Record: O=C(O)c1cn(C2CC2)c2cc(-n3cc(CNC4CCCC4)nn3)c(F)cc2c1=O
Output: 16 µg/mL

Task: Record: O=C(O)c1cn(C2CC2)c2cc(N3CCNCC3)c(F)cc2c1=O
Output: 0.5 µg/mL

Task: Record: O=C(O)c1cn(C2CC2)c2cc(-n3cc(CNCc4ccc(F)cc4)nn3)c(F)cc2c1=O
Output: 8 µg/mL

Task: Record: Cc1ccc(NCc2cn(-c3cc4c(cc3F)c(=O)c(C(=O)O)cn4C3CC3)nn2)cc1
Output: 8 µg/mL

Task: Record: CC(C)NCc1cn(-c2cc3c(cc2F)c(=O)c(C(=O)O)cn3C2CC2)nn1
Output: 16 µg/mL

Task: Record: CN(C)Cc1cn(-c2cc3c(cc2F)c(=O)c(C(=O)O)cn3C2CC2)nn1
Output: 8 µg/mL
